These data points were gathered from ChEMBL document CHEMBL1154167.

TEST PROTOCOL: Metabolic stability in human liver cytosol assessed as compound turnover at 1 uM after 60 mins
Format: ADME, tissue-based
STATED CONDITIONS: 1 h
REPORTED METRIC: Stability

CC[C@H]1OC(=O)[C@H](C)C(=O)[C@H](C)[C@@H](O[C@@H]2O[C@H](C)C[C@H](N(C)C)[C@H]2O)[C@](C)(O)C[C@@H](C)C(=O)[C@H](C)[C@H]2N(C3CN([C@H](C)c4ccnc5ncccc45)C3)C(=O)O[C@]12C    Unstable
CC[C@H]1OC(=O)[C@H](C)C(=O)[C@H](C)[C@@H](O[C@@H]2O[C@H](C)C[C@H](N(C)C)[C@H]2O)[C@](C)(OC)C[C@@H](C)C(=O)[C@H](C)[C@H]2N(CCCCn3cnc(-c4cccnc4)c3)C(=O)O[C@]12C    Stable
CC[C@H]1OC(=O)[C@H](C)C(=O)[C@H](C)[C@@H](O[C@@H]2O[C@H](C)C[C@H](N(C)C)[C@H]2O)[C@](C)(O)C[C@@H](C)C(=O)[C@H](C)[C@H]2N(C3CN(Cc4c(O)cnc5cccnc45)C3)C(=O)O[C@]12C    Stable
CC[C@H]1OC(=O)[C@H](C)C(=O)[C@H](C)[C@@H](O[C@@H]2O[C@H](C)C[C@H](N(C)C)[C@H]2O)[C@](C)(O)C[C@@H](C)C(=O)[C@H](C)[C@H]2N(C3CN(Cc4ccnc5cccnc45)C3)C(=O)O[C@]12C    Stable
CC[C@H]1OC(=O)[C@H](C)C(=O)[C@H](C)[C@@H](O[C@@H]2O[C@H](C)C[C@H](N(C)C)[C@H]2O)[C@](C)(O)C[C@@H](C)C(=O)[C@H](C)[C@H]2N(C3CN(Cc4ccnc5ncccc45)C3)C(=O)O[C@]12C    Unstable

Next item in the queue.
Q) Returns the measured Stability for the input compound. Input: `CC[C@H]1OC(=O)[C@H](C)C(=O)[C@H](C)[C@@H](O[C@@H]2O[C@H](C)C[C@H](N(C)C)[C@H]2O)[C@](C)(O)C[C@@H](C)C(=O)[C@H](C)[C@H]2N(C3CN(Cc4c(O)cnc5ncccc45)C3)C(=O)O[C@]12C`
A) Unstable
